Biological target: Recombinant human cathepsin A (Homo sapiens)
Construct: Recombinant human cathepsin A (residues 29-480, with a C-terminal 10-His tag); 10-His (C)
Sequence (P10619 29-326 limits assumed): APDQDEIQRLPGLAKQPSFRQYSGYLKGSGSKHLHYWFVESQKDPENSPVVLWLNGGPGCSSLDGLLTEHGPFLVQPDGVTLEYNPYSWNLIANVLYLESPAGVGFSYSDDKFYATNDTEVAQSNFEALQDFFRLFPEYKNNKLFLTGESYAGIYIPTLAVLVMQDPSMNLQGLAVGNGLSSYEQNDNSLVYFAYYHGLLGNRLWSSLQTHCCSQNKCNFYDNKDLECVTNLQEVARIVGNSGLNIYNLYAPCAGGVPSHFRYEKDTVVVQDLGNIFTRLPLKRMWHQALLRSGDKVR
Sequence (P10619 327-480 limits assumed): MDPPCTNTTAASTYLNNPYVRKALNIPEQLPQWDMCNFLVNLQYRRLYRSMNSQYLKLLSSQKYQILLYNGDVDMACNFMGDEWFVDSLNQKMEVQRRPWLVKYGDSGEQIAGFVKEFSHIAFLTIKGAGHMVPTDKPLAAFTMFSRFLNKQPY
Experiment: Cathepsin A inhibitory activity
Conditions: activated recombinant human cathepsin A 833 ng/ml, Bodipy FL-labeled bradykinin 2 μM, pH 5.5, 15 min room temperature
property: IC50 (µM)

* Cc1ccccc1[C@H](CC(=O)O)NC(=O)c1cc(NC(=O)c2ccccc2)n(-c2ccccc2)n1 | 0.0301
* Cc1ccccc1[C@H](CC(=O)O)NC(=O)c1cc(NC(=O)CO[C@@H]2C[C@H](C)CC[C@H]2C(C)C)n(-c2ccccc2)n1 | 1.78

A. O=C(O)CC(NC(=O)c1cc2[nH]c3ccccc3n2n1)c1cccc(F)c1 (stereo not drawn)
B. Cc1ccccc1[C@H](CC(=O)O)NC(=O)c1cc(N2CCCCC2=O)n(-c2ccccc2)n1
Request: Higher IC50 between A and B ? Bench note: the answer is the label of the chosen record.
Result: A
(A: 3.12 µM, B: 0.0645 µM)

I. O=C(O)CC(NC(=O)c1cc2[nH]c3ccccc3n2n1)c1cccc(Oc2ccccc2)c1 (stereo not drawn)
II. O=C(O)C[C@H](NC(=O)c1cc2[nH]c3ccccc3n2n1)c1ccccc1
Request: Higher IC50 between I and II ? Bench note: the answer is the label of the chosen record.
Result: I
